Target: human M4 receptor (Homo sapiens, UniProt P08173)
Sequence (P08173 1-479): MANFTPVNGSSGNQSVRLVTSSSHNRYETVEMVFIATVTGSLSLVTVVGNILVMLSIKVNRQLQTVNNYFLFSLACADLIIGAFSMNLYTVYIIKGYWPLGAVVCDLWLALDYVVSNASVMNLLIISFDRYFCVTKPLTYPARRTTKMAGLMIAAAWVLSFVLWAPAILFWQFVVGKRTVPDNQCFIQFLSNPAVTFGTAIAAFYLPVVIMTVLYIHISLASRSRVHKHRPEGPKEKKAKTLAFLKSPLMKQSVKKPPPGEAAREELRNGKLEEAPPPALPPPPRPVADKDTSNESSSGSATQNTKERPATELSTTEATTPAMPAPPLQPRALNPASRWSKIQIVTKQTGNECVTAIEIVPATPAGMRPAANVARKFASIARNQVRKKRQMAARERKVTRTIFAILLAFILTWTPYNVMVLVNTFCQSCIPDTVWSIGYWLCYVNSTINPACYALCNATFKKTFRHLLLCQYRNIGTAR
Assay: M4 GTPγS PAM assay
Details: CHO-K1 membranes expressing human M4, with EC20 acetylcholine (40 nM)
pEC50: −log10 of the molar value.
QUANTITY: pEC50

> print(dat)
                                   compound  value.measured
1  Cc1c2c(n(C)c(=O)c1Cl)CN(C(=O)c1ccc(C(F)(F)F)cc1)C2    6.30 to 7.00
2  Cc1c2c(n(C)c(=O)c1Cl)CN(C(=O)c1ccc3nc(C(F)(F)F)sc3c1)C2    5.70 to 6.30
3  Cc1cc(=O)n(C)c2c1C(C)N(C(=O)c1ccc3nc(C(F)(F)F)sc3c1)C2 (single isomer, unassigned)          < 5.70
4  Cc1cc(=O)n(C)c2c1[C@H](C)N(C(=O)c1ccc3nc(C4CC4)sc3c1)C2          < 5.70

---

Target: hM4 receptors (Homo sapiens, UniProt P08173)
Sequence (P08173 1-479): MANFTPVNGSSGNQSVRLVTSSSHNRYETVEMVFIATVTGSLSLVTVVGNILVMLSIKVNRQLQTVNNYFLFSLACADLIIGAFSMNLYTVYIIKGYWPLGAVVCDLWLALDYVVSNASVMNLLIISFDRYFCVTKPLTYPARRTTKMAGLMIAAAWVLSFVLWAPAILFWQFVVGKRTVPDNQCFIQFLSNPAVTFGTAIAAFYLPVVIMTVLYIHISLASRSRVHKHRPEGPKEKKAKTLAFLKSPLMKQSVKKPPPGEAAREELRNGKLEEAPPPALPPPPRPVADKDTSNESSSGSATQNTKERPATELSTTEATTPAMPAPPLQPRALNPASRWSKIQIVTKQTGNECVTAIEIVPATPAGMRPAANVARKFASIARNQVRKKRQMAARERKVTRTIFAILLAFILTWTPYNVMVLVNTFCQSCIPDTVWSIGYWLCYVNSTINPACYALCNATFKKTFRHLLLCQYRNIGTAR
Test: Human M4 PAM pERK assay
Conditions: PAM mode
QUANTITY: EC50

> print(dat)
                                    compound  value.measured
 1  Cc1c2c(n(C)c(=O)c1Cl)CN(C(=O)c1cn3c(n1)CCC3)C2   100 to 500 nM
 2  Cc1c2c(n(C)c(=O)c1Cl)CN(C(=O)c1cnn(C(F)F)c1)C2        < 100 nM
 3  Cc1c2c(n(C)c(=O)c1Cl)CN(C(=O)c1cnn(CC3COC3)c1)C2   100 to 500 nM
 4  Cc1c2c(n(C)c(=O)c1Cl)CN(C(=O)c1ccc3c(c1)COC3)C2   100 to 500 nM
 5  Cc1c2c(n(C)c(=O)c1Cl)CN(C(=O)c1cnn3c1CCC3)C2       > 2000 nM
 6  Cc1c2c(n(C)c(=O)c1Cl)CN(C(=O)c1ncc3ccccn13)C2       > 2000 nM
 7  Cc1c2c(n(C)c(=O)c1Cl)CN(C(=O)c1cc(C(F)(F)F)on1)C2        < 100 nM
 8  CSc1c2c(n(C)c(=O)c1C)CN(C(=O)c1cnc(CC3CC3)s1)C2   100 to 500 nM
 9  Cc1cc(=O)n(C)c2c1C(C)N(C(=O)c1cnn(C(F)(F)F)c1)C2 (single isomer, unassigned) [Compound I-92]       > 2000 nM
10  Cc1c2c(n(C)c(=O)c1Cl)CN(C(=O)c1cnc(CC3CC3(F)F)s1)C2 (stereo not shown) [Compound I-66]        < 100 nM
11  COCc1ncc(C(=O)N2Cc3c(C)c(Cl)c(=O)n(C)c3C2)s1   100 to 500 nM
12  COc1cc(=O)n(C)c2c1C(C)N(C(=O)c1cnn(C(F)(F)F)c1)C2 (single isomer, unassigned) [Compound I-80]   100 to 500 nM
13  Cc1c2c(n(C)c(=O)c1C)CN(C(=O)c1cnn(C(F)(F)F)c1)C2        < 100 nM
14  Cc1cc(=O)n(C)c2c1C(C)N(C(=O)c1cnc(C3CC3)s1)C2 (single isomer, unassigned) [Compound I-96]       > 2000 nM
15  Cc1c2c(n(C)c(=O)c1Cl)CN(C(=O)c1cc(C3CC3)on1)C2   100 to 500 nM
16  Cc1c2c(n(C)c(=O)c1Cl)CN(C(=O)c1cc(CC(F)(F)F)on1)C2  500 to 2000 nM
17  Cc1c2c(n(C)c(=O)c1Cl)CN(C(=O)c1cnn(C(F)(F)F)c1)C2        < 100 nM
18  Cc1c2c(n(C)c(=O)c1Cl)CN(C(=O)c1cnc(CC3CC3(F)F)s1)C2 (stereo not shown) [Compound I-65]        < 100 nM
19  COc1c2c(n(C)c(=O)c1C)CN(C(=O)c1cnn(CC(F)(F)F)c1)C2  500 to 2000 nM
20  Cc1c2c(n(C)c(=O)c1Cl)CN(C(=O)c1ccc3nc(C(F)(F)F)sc3c1)C2   100 to 500 nM
21  COc1c2c(n(C)c(=O)c1Cl)CN(C(=O)c1cnn(C(F)(F)F)c1)C2C (single isomer, unassigned) [Compound I-74]        < 100 nM
22  Cc1c2c(n(C)c(=O)c1Cl)CN(C(=O)c1cncc(C(F)(F)F)c1)C2       > 2000 nM

---

molecular target: human M4 receptor (Homo sapiens); test: M4 GTPγS PAM assay; conditions: CHO-K1 membranes expressing human M4, with EC20 acetylcholine (40 nM)
pEC50: −log10 of the molar value.
Documented pEC50 across a set of compounds
QUANTITY: pEC50

> print(dat)
                                    compound  quantity  value.measured
 1  Cc1c2c(n(C)c(=O)c1Cl)CN(C(=O)c1cnc(C(F)(F)C3CC3)s1)C2     pEC50    6.30 to 7.00
 2  Cc1c2c(n(C)c(=O)c1Cl)CN(C(=O)c1cncc(C(F)(F)F)c1)C2     pEC50          < 5.70
 3  COc1c2c(n(C)c(=O)c1Cl)CN(C(=O)c1cnn(C(F)(F)F)c1)C2C (single isomer, unassigned) [Compound I-74]     pEC50    5.70 to 6.30
 4  Cc1c2c(n(C)c(=O)c1Cl)CN(C(=O)c1cccc(C(F)(F)F)c1)C2     pEC50          < 5.70
 5  Cc1c2c(n(C)c(=O)c1Cl)CN(C(=O)c1cn(C)c(C)n1)C2     pEC50          < 5.70
 6  Cc1nc(C(=O)N2Cc3c(C)c(Cl)c(=O)n(C)c3C2)co1     pEC50          < 5.70
 7  Cc1c2c(n(C)c(=O)c1Cl)CN(C(=O)c1cnn(C(F)F)c1)C2     pEC50          < 5.70
 8  COCCn1cc(C(=O)N2Cc3c(C)c(Cl)c(=O)n(C)c3C2)cn1     pEC50          < 5.70
 9  COc1c2c(n(C)c(=O)c1C)CN(C(=O)c1cnn(C(F)(F)F)c1)C2C (racemic) [Compound I-82]     pEC50    6.30 to 7.00
10  Cc1c2c(n(C)c(=O)c1Cl)CN(C(=O)c1ccnc(C(F)(F)F)c1)C2     pEC50          < 5.70

---

Below is a list of entries, each paired with its recorded EC50 value.
Target: rM4 receptors (Rattus norvegicus, UniProt P08485)
Sequence (P08485 1-478): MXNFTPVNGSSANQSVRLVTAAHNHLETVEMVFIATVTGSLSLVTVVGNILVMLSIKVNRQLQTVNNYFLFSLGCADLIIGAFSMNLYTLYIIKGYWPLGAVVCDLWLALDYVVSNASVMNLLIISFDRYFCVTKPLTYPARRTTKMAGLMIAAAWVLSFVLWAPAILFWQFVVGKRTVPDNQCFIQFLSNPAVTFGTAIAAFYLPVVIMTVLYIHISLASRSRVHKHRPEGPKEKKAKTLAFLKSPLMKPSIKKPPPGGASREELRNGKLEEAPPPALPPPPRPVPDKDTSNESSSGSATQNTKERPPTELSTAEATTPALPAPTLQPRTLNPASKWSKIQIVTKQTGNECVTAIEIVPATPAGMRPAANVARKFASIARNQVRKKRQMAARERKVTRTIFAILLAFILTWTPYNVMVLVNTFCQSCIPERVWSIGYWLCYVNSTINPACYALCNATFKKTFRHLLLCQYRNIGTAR
Test: Rat M4 PAM pERK assay
Conditions: PAM mode
Experimental: Chinese hamster ovary (CHO) cells expressing either hM4 or rM4 receptors were frozen in assay ready vials (5×10^6 cells/vial) after bulking-up in culture. The day before an assay, vial(s) were thawed and cells seeded in 384 well white proxiplates at 1000/well for hM4 cells and at 2000/well for rM4 cells, in 10 μL of growth media (Hams/F12 with glutamax and 10% FCS) and incubated overnight at 37° C./5% CO2. […]
QUANTITY: EC50

> print(dat)
                                    compound  quantity  value.measured
 1  Cc1c2c(n(C)c(=O)c1Cl)CN(C(=O)c1ccc(C(F)(F)F)cn1)C2 [Compound I-45]      EC50       > 2000 nM
 2  CCOc1c2c(n(C)c(=O)c1C)CN(C(=O)c1cnn(C(F)(F)F)c1)C2 [Compound I-88]      EC50       > 2000 nM
 3  Cc1c2c(n(C)c(=O)c1Cl)CN(C(=O)c1cnc(CC(C)C)s1)C2 [Compound I-34]      EC50  500 to 2000 nM
 4  Cc1c2c(n(C)c(=O)c1Cl)CN(C(=O)c1cnn(C(F)F)c1)C2 [Compound I-17]      EC50  500 to 2000 nM
 5  Cc1c2c(n(C)c(=O)c1Cl)CN(C(=O)c1cc(C(F)(F)F)n(C)c1)C2 [Compound I-68]      EC50   100 to 500 nM
 6  Cc1c2c(n(C)c(=O)c1Cl)CN(C(=O)c1ccc3cncn3c1)C2 [Compound I-47]      EC50  500 to 2000 nM
 7  Cc1c2c(n(C)c(=O)c1Cl)CN(C(=O)c1cnn(C(F)(F)F)c1)[C@@H]2C [Compound I-76]      EC50   100 to 500 nM
 8  Cc1c2c(n(C)c(=O)c1Cl)CN(C(=O)c1cnc(C(F)(F)C3CC3)s1)C2 [Compound I-67]      EC50  500 to 2000 nM
 9  Cc1c2c(n(C)c(=O)c1C(F)(F)F)CN(C(=O)c1cnn(C)c1)C2 [Compound I-110]      EC50       > 2000 nM
10  Cc1c2c(n(C)c(=O)c1Cl)C(C)N(C(=O)c1cnn(C(F)(F)F)c1)C2 (centres unmarked) [Compound I-109]      EC50       > 2000 nM
11  Cc1c2c(n(C)c(=O)c1Cl)CN(C(=O)c1cnn(Cc3ccccc3)c1)C2 [Compound I-23]      EC50  500 to 2000 nM
